# inhibition at 1 µM per entry
assay system: Aurora A (Homo sapiens (Human))
assay protocol: Aurora A inhibition assay (Z-Lyte)
Assay type: biochemical

Sample records with inhibition at 1 µM:
[
  {
    "compound": "COc1ccc2c(c1)[C@]1(C[C@H]1c1ccc3c(/C=C/c4ccc(OCCN5CCOCC5)cc4)n[nH]c3c1)C(=O)N2 [Example A194, 2,2,2-trifluoroacetate]",
    "assay system": "Aurora A (Homo sapiens (Human))",
    "inhibition at 1 µM": "> 50%"
  },
  {
    "compound": "COc1ccc2c(c1)[C@]1(C[C@H]1c1ccc3c(/C=C/c4ccc(N5CCN(C)CC5)cc4)n[nH]c3c1)C(=O)N2 (relative stereo) [Example A174, 2,2,2-trifluoroacetate]",
    "assay system": "Aurora A (Homo sapiens (Human))",
    "inhibition at 1 µM": "> 50%"
  },
  {
    "compound": "COc1ccc2c(c1)[C@]1(C[C@H]1c1ccc3c(-c4cccc(CN5CCOCC5)c4)n[nH]c3c1)C(=O)N2 (relative stereo) [Example A136, 2,2,2-trifluoroacetate]",
    "assay system": "Aurora A (Homo sapiens (Human))",
    "inhibition at 1 µM": "< 50%"
  },
  {
    "compound": "O=C1Nc2ccccc2[C@]12C[C@H]2c1ccc2c(/C=C/c3ccc(CN4CCCC4)cc3)n[nH]c2c1 (relative stereo) [Example A60, 2,2,2-trifluoroacetate]",
    "assay system": "Aurora A (Homo sapiens (Human))",
    "inhibition at 1 µM": "> 50%"
  }
]

# evaluate next
Query: Can you look up the measured inhibition at 1 µM of CN(C)Cc1ccc(/C=C/c2n[nH]c3cc([C@@H]4C[C@@]45C(=O)Nc4ccc(F)cc45)ccc23)cc1 (relative stereo) for me?
Response: > 50%

---

assay system: Aurora A (Homo sapiens (Human), UniProt O14965)
Sequence (O14965 whole entry): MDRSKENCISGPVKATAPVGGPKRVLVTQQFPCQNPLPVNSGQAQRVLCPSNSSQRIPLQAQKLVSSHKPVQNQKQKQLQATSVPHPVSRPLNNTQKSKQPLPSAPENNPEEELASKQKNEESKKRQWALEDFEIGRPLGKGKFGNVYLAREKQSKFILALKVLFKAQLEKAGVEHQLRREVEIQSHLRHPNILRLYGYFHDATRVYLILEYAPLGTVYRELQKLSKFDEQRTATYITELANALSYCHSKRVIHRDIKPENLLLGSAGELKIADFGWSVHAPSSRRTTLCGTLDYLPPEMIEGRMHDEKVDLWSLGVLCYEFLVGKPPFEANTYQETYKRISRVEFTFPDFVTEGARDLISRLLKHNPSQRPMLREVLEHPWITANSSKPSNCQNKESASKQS
assay protocol: Aurora A inhibition assay (Z-Lyte)
Assay type: biochemical
Where a name gives a salt, the structure may show the parent alone.
readout kind: inhibition at 1 µM

Please review the following examples before continuing.
[
  {
    "compound": "CN1C(=O)[C@@]2(C[C@H]2c2ccc3c(/C=C/c4ccc(N5CCNCC5)cc4)n[nH]c3c2)c2ccccc21 [Example A90, hydrochloride]",
    "observed result": "> 50%"
  },
  {
    "compound": "O=C1Nc2ccc(F)cc2[C@]12C[C@H]2c1ccc2c(/C=C/c3ccc(N4CCOCC4)nc3)n[nH]c2c1 (relative stereo) [Example A207, 2,2,2-trifluoroacetate]",
    "observed result": "> 50%"
  },
  {
    "compound": "CN(C)Cc1cccc(/C=C/c2n[nH]c3cc([C@@H]4C[C@@]45C(=O)N(CC(N)=O)c4ccccc45)ccc23)c1 (relative stereo) [Example A164, 2,2,2-trifluoroacetate]",
    "observed result": "> 50%"
  },
  {
    "compound": "NC(=O)CN1C(=O)[C@@]2(C[C@H]2c2ccc3c(/C=C/c4ccc(CN5CCCCC5)cc4)n[nH]c3c2)c2ccccc21 (relative stereo) [Example A165, 2,2,2-trifluoroacetate]",
    "observed result": "> 50%"
  },
  {
    "compound": "O=C1Nc2ccccc2[C@]12C[C@H]2c1ccc2c(/C=C/c3ccc(CN4CCCCC4)nc3)n[nH]c2c1 (relative stereo) [Example A63, 2,2,2-trifluoroacetate salt]",
    "observed result": "> 50%"
  }
]

Query: May I ask what inhibition at 1 µM has been recorded for COc1ccc2c(c1)[C@]1(C[C@H]1c1ccc3c(-c4ccc(N5CCN(C)CC5)nc4)n[nH]c3c1)C(=O)N2C (relative stereo) [Example A104, bis(2,2,2-trifluoroacetate)] ?
Response: < 50%

Query: # input compound: O=C1Nc2ccccc2[C@]12C[C@H]2c1ccc2c(/C=C/c3cccnc3)n[nH]c2c1 [Example A29] ; wanted: its inhibition at 1 µM
Response: > 50%

Query: // inhibition at 1 µM lookup, key: COc1ccc2c(c1)[C@]1(C[C@H]1c1ccc3c(/C=C/c4cc(F)c(CN(C)C)c(F)c4)n[nH]c3c1)C(=O)N2 [Example A216, 2,2,2-trifluoroacetate]
Response: > 50%

Query: Sample O=C1Nc2ccccc2[C@]12C[C@H]2c1ccc2c(/C=C/c3cc(F)c(CN4CCOCC4)c(F)c3)n[nH]c2c1 [Example A116, 2,2,2-trifluoroacetate] — what was its inhibition at 1 µM?
Response: > 50%

Query: So what's the measured inhibition at 1 µM for this one? COc1ccc2c(c1)[C@]1(C[C@H]1c1ccc3c(-c4ccc(OCCN5CCOCC5)cc4)n[nH]c3c1)C(=O)N2 [Example A68, 2,2,2-trifluoroacetate salt]
Response: < 50%

Query: Give the measured inhibition at 1 µM of O=C1Nc2ccccc2[C@]12C[C@H]2c1ccc2c(/C=C/c3ccc(CN4CCCCC4)cc3)n[nH]c2c1 [Example A58, 2,2,2-trifluoroacetate] .
Response: > 50%

Query: Could you share which inhibition at 1 µM value was measured for O=C1Nc2ccccc2[C@]12C[C@H]2c1ccc2c(/C=C/c3ccc(N4CCNCC4)cc3)n[nH]c2c1 (relative stereo) [Example A91, 2,2,2-trifluoroacetate] ?
Response: > 50%

Query: Fill blank: measured inhibition at 1 µM of the compound COc1ccc2c(c1)[C@]1(C[C@H]1c1ccc3c(-c4ccc(OCCN(C)C)cc4)n[nH]c3c1)C(=O)N2 (relative stereo) [Example A103, 2,2,2-trifluoroacetate] is ____.
Response: < 50%

---

assay system: Aurora A (Homo sapiens (Human), UniProt O14965)
assay protocol: Aurora A inhibition assay (Z-Lyte)
Format: biochemical
readout kind: inhibition at 1 µM

[
  {
    "compound": "COc1ccc2c(c1)[C@]1(C[C@H]1c1ccc3c(/C=C/c4ccc(N5CCNCC5)nc4)n[nH]c3c1)C(=O)N2 (relative stereo) [Example A163, 2,2,2-trifluoroacetate]",
    "inhibition at 1 µM": "> 50%"
  },
  {
    "compound": "CN1CCN(c2ccc(-c3n[nH]c4cc([C@@H]5C[C@@]56C(=O)N(C)c5ccccc56)ccc34)cn2)CC1 (relative stereo) [Example A93, bis(2,2,2-trifluoroacetate)]",
    "inhibition at 1 µM": "> 50%"
  },
  {
    "compound": "COc1ccc2c(c1)[C@]1(C[C@H]1c1ccc3c(-c4ccc5nccn5c4)n[nH]c3c1)C(=O)N2 [Example A107, 2,2,2-trifluoroacetate]",
    "inhibition at 1 µM": "< 50%"
  }
]

Query: Would you mind telling me what inhibition at 1 µM value was observed for O=C1Nc2ccccc2[C@]12C[C@H]2c1ccc2c(I)n[nH]c2c1 (relative stereo) [Example A9] ?
Response: < 50%

Query: Consider the compound shown here: COc1ccc2c(c1)[C@]1(C[C@H]1c1ccc3c(-c4ccc(C5CCNCC5)cc4)n[nH]c3c1)C(=O)N2 (relative stereo) [Example A122, 2,2,2-trifluoroacetate] What is its recorded inhibition at 1 µM?
Response: < 50%

---

# Lookup of reported inhibition at 1 µM keyed by entry
assay system: Aurora A (Homo sapiens (Human), UniProt O14965)
assay protocol: Aurora A inhibition assay (Z-Lyte)
Format: biochemical
Structures can show the parent of a compound that is named as a salt.

[
  {
    "molecule": "Cc1cc(/C=C/c2n[nH]c3cc([C@@H]4C[C@@]45C(=O)Nc4ccccc45)ccc23)ccn1 (relative stereo) [Example A161]",
    "inhibition at 1 µM": "> 50%"
  },
  {
    "molecule": "COc1ccc2c(c1)[C@]1(C[C@H]1c1ccc3c(-c4ccc(N(C)CCN(C)C)cc4)n[nH]c3c1)C(=O)N2 [Example A129, 2,2,2-trifluoroacetate]",
    "inhibition at 1 µM": "< 50%"
  },
  {
    "molecule": "COc1ccc2c(c1)[C@]1(C[C@H]1c1ccc3c(/C=C/c4ccc(OC5CCN(C)CC5)cc4)n[nH]c3c1)C(=O)N2 [Example A79, 2,2,2-trifluoroacetate salt]",
    "inhibition at 1 µM": "> 50%"
  },
  {
    "molecule": "CCN1CCN(c2ccc(-c3n[nH]c4cc([C@@H]5C[C@@]56C(=O)Nc5ccc(OC)cc56)ccc34)cc2)CC1 [Example A99, 2,2,2-trifluoroacetate]",
    "inhibition at 1 µM": "< 50%"
  }
]

Query: # input molecule: COc1ccc2c(c1)[C@]1(C[C@H]1c1ccc3c(/C=C/c4cccc(CN5CCOCC5)c4)n[nH]c3c1)C(=O)N2 (relative stereo) [Example A133, 2,2,2-trifluoroacetate] ; wanted: its inhibition at 1 µM
Response: > 50%

Query: What inhibition at 1 µM value was documented for this molecule, CCN(CC)Cc1ccc(/C=C/c2n[nH]c3cc([C@@H]4C[C@@]45C(=O)Nc4ccc(OC)cc45)ccc23)cc1 [Example A206, 2,2,2-trifluoroacetate] ?
Response: > 50%

Query: Requested field: inhibition at 1 µM. Item: COc1ccc2c(c1)[C@]1(C[C@H]1c1ccc3c(/C=C/c4ccc(CN5CCCOCC5)cc4)n[nH]c3c1)C(=O)N2 [Example A73, 2,2,2-trifluoroacetate salt]
Response: > 50%

Query: Record request: inhibition at 1 µM value, item COc1ccc2c(c1)[C@]1(C[C@H]1c1ccc3c(-c4ccc(N5CCC(N6CCOCC6)CC5)cc4)n[nH]c3c1)C(=O)N2 [Example A121, 2,2,2-trifluoroacetate]
Response: < 50%

Query: I would be grateful if you could share the reported inhibition at 1 µM for Cc1ccc(/C=C/c2n[nH]c3cc([C@@H]4C[C@@]45C(=O)Nc4ccccc45)ccc23)cn1 [Example A150] .
Response: > 50%

Query: May I ask what inhibition at 1 µM has been recorded for Cc1ccc2c(c1)[C@]1(C[C@H]1c1ccc3c(/C=C/c4ccc(CN5CCOCC5)cc4)n[nH]c3c1)C(=O)N2 (relative stereo) [Example A196, 2,2,2-trifluoroacetate] ?
Response: > 50%

Query: # lookup: inhibition at 1 µM of O=C1Nc2ccc(F)cc2[C@]12C[C@H]2c1ccc2c(I)n[nH]c2c1 (relative stereo) [Example A40]
Response: < 50%

Query: Which inhibition at 1 µM value belongs to CCN1CCN(c2ccc(-c3n[nH]c4cc([C@@H]5C[C@@]56C(=O)Nc5ccc(OC)cc56)ccc34)cc2)CC1 (relative stereo) [Example A98, 2,2,2-trifluoroacetate] ?
Response: < 50%
